biological target: Voltage-gated inwardly rectifying potassium channel KCNH2 (Homo sapiens); test: Human Ether-a-go-go-Related Gene (hERG) channel small molecule antagonists: fluorescence cell-based qHTS assay (AID 1671200); details: hERG-U2OS cells, FluxOR thallium flux fluorescence; series mostly up to 76.8 µM;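 also: hERG-expressing U2OS cells given a thallium stimulus after FluxOR II dye loading; % is scaled to controls: 0 for no effect and ±100 for the full control effect; nearly all actives have a fitted effect of over 50% in size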
Inconclusive results are not listed. Activity calls are given as the source filed them. Calls follow the shape of the dose curve; as a rule, active = well fitted inhibition curve with a large enough effect in the repeat runs; inconclusive = weak or mixed curves; inactive = flat fitted curve, though single readings scatter.
Would you kindly list activity change, negative = inhibition for each of these compounds?

Query c1ccc(-c2ccc(-c3ccccc3)cc2)cc1 yields activity change, negative = inhibition of 1.54% [at 15.8 µM] (inactive)

Query COC=O yields activity change, negative = inhibition of -1.77% [at 6.97 µM] (inactive)

Query CC1=CC(=C(c2ccc(N)cc2)c2ccc(N)cc2)C=CC1=N yields activity change, negative = inhibition of -5.88% [at 6.97 µM] (inactive)

Query CCCCCCCCCCCCCCCCCCCl yields activity change, negative = inhibition of 6.07% [at 6.97 µM] (inactive)

----------
Experiment: qHTS assay for identifying genotoxic compounds that show differential cytotoxicity against isogenic chicken DT40 cell lines with known DNA damage response pathways - wild type cell line (AID 743012); also: nearly all actives have a fitted effect of over 60% in size
Conditions: DT40 wild type chicken cells viability, CellTiter-Glo, 40 h; series mostly up to 68.4 µM
From the text: U.S. Tox21 Program National Center for Advancing Translational Sciences [NCATS] NIH Chemical Genomics Center [NCGC] U.S. Environmental Protection Agency [EPA] National Institutes of Environmental Health Sciences [NIEHS] National Toxicology Program [NTP] U.S. Food and Drug Administration [FDA] Tox21 Assay Overview: DNA repair pathways play a critical role in cellular homeostasis by repairing DNA damage induced by endogenous processes and xenobiotics. […]
Results filed as inconclusive are left out. The source made the active and inactive calls. Calls come from the whole dose curve; as a rule, active = well fitted cell-killing curve with a large enough effect in the repeat runs; inconclusive = weak or mixed curves, or effect the other way; inactive = no such curve, though single readings can be large or run the other way.
Please reply with one of these outcomes: active, inactive

Which outcome did this test record for the compound OCCc1ccncc1 ?
inactive

Which outcome did this test record for the compound Clc1nc2ccccc2nc1Cl ?
inactive

Which outcome did this test record for the compound N#CCCCC(C#N)CCC#N (configuration not stated) ?
inactive

Which outcome did this test record for the compound O=C1c2ccccc2C(=O)C1c1ccc2cc(S(=O)(=O)O)cc(S(=O)(=O)O)c2n1 ?
inactive

Which outcome did this test record for the compound CCC1=C(C)CN(C(=O)NCCc2ccc(S(=O)(=O)NC(=O)NC3CCC(C)CC3)cc2)C1=O (configuration not stated) ?
inactive

Which outcome did this test record for the compound CC1(C)C(=O)NC(=O)N1CO ?
inactive

Which outcome did this test record for the compound CC(COc1ccccc1)NC(C)C(O)c1ccc(O)cc1 (configuration not stated) ?
inactive

Which outcome did this test record for the compound Nc1ccc(F)cc1F ?
inactive

Which outcome did this test record for the compound Cc1ccccc1CCO ?
inactive

Which outcome did this test record for the compound CC(=O)Nc1ccccc1O ?
inactive

Which outcome did this test record for the compound CCCc1ccc(OC)cc1 ?
inactive

Which outcome did this test record for the compound Nc1ncnc2c1ncn2[C@@H]1O[C@H](CO)[C@@H](O)[C@H]1O ?
inactive

Which outcome did this test record for the compound CCCCCCCCCCCCCCCCN ?
inactive

Which outcome did this test record for the compound CCOC(OCC)OCC ?
inactive

Which outcome did this test record for the compound CC(=O)S[C@H](C(=O)N[C@H]1Cc2ccccc2[C@H]2CCC[C@@H](C(=O)O)N2C1=O)C(C)C ?
inactive

Which outcome did this test record for the compound C/C(=C\C(C)CC(C)CC(C)C)C1CC(=O)OC1=O (configuration not stated) ?
inactive

Which outcome did this test record for the compound CCCCOC(=O)CC#N ?
inactive

Which outcome did this test record for the compound COc1ccc(CN(CCN(C)C)c2ncccn2)cc1 ?
inactive

Which outcome did this test record for the compound O=C(Cl)c1cc(Cl)cc(Cl)c1 ?
inactive

Which outcome did this test record for the compound Cc1cc(SC2=C(O)C[C@@](CCc3ccc(N)cc3)(C(C)C)OC2=O)c(C(C)(C)C)cc1CO ?
inactive

Which outcome did this test record for the compound CC(CCl)OC(C)CCl (configuration not stated) ?
inactive

Which outcome did this test record for the compound CCCCOc1ccc(N)cc1 ?
inactive

Which outcome did this test record for the compound Cc1ccc(NC=O)c(C)c1 ?
inactive

Which outcome did this test record for the compound CC1(C)CC(=O)CC(C)(C)N1 ?
inactive

Which outcome did this test record for the compound CC[C@H](NC(C)C)[C@H](O)c1ccc(O)c2[nH]c(=O)ccc12 ?
inactive

Which outcome did this test record for the compound CCCCCCCCCCCCCCCCC(=O)O ?
inactive

Which outcome did this test record for the compound CCCC1CCOC(C)S1 (configuration not stated) ?
inactive

Which outcome did this test record for the compound NC(=O)c1ccccc1 ?
inactive

Which outcome did this test record for the compound CC(=O)CC/C=C(\C)CC/C=C(\C)CC/C=C(\C)CCC=C(C)C ?
inactive

Which outcome did this test record for the compound NC(=O)c1cc[n+](CC2=C(C(=O)[O-])N3C(=O)[C@@H](NC(=O)Cc4cccs4)[C@H]3SC2)cc1 ?
inactive

Which outcome did this test record for the compound FC(F)(Cl)C(F)(Cl)Cl ?
inactive

Which outcome did this test record for the compound CCn1nc(Cc2ccccc2)cc1C1CCN(C[C@H]2C[C@H](N(C)[C@@H](C(=O)O)C(C)C)C[C@@H]2c2cccc(F)c2)CC1 ?
active

Which outcome did this test record for the compound O=C1C=CCCC1 ?
inactive

Which outcome did this test record for the compound CCOc1ccccc1O ?
inactive

Which outcome did this test record for the compound C[C@H]1C[C@H]2[C@@H]3CCC4=CC(=O)C=C[C@]4(C)[C@@]3(F)[C@@H](O)C[C@]2(C)[C@@]1(O)C(=O)COP(=O)(O)O ?
inactive

Which outcome did this test record for the compound O=C(NC1CCN(CCc2c[nH]c3ccccc23)CC1)c1ccccc1 ?
active

Which outcome did this test record for the compound Cc1c(Cl)cccc1[N+](=O)[O-] ?
inactive

Which outcome did this test record for the compound CCCCCC1CCC(=O)O1 (configuration not stated) ?
inactive

Which outcome did this test record for the compound O=S(=O)(O)c1cc(Cl)c(Cl)cc1Cl ?
inactive

Which outcome did this test record for the compound CCOC(C)OCC ?
inactive

Which outcome did this test record for the compound COc1cc(C)c(Cc2cnc(N)nc2N)cc1OC ?
active

Which outcome did this test record for the compound CC(=O)Nc1cccc(N)c1 ?
inactive

Which outcome did this test record for the compound COC(=O)C(C)(C)C ?
inactive

Which outcome did this test record for the compound Cc1ccc2c(Cl)cc(Cl)c(O)c2n1 ?
active

Which outcome did this test record for the compound CCCOC(C)=O ?
inactive

Which outcome did this test record for the compound CCc1cnc(C(=O)O)c(C(=O)O)c1 ?
inactive

Which outcome did this test record for the compound FC1(F)C(F)(F)C(F)(F)C2(F)C(F)(C1(F)F)C(F)(F)C(F)(F)C1(F)C(F)(F)C(F)(F)C(F)(F)C(F)(F)C12F (configuration not stated) ?
inactive

Which outcome did this test record for the compound CC(=O)OCC(=O)[C@@]1(O)CC[C@H]2[C@@H]3CCC4=CC(=O)C=C[C@]4(C)[C@@]3(F)[C@@H](O)C[C@@]21C ?
inactive

Which outcome did this test record for the compound O=C(O)c1cc(C(=O)O)cc([N+](=O)[O-])c1 ?
inactive

Which outcome did this test record for the compound CCc1ccc2c(c1)C(=O)c1ccccc1C2=O ?
inactive

Which outcome did this test record for the compound CCCCCCCCC(=O)OCC(C)OC(=O)CCCCCCCC (configuration not stated) ?
inactive

Which outcome did this test record for the compound CC(C)(C)N ?
inactive
